Species: Rattus norvegicus
MEASUREMENT_DESCRIPTION: Open TG-GATES - Regimen: Daily Repeat
Format: toxicity, organism-based, Sprague-Dawley
Set-up: regimen Daily Repeat, gender Male, age 6 weeks
RUN_PARAMETERS: in vivo, po, 1000 mg/kg, […], tissue Blood, route gavage, dose level High, time 28 day
# if measured Lym < 80%: T  # else: F

# STRUCTURE_STRING, CLASS_NAME
records = [
    ("Cc1nnc2n1-c1ccc(Cl)cc1C(c1ccccc1Cl)=NC2", "T"),
    ("COC(=O)C1=C(C)NC(C)=C(C(=O)OC)C1c1ccccc1[N+](=O)[O-]", "T"),
    ("CCOc1ccc(NC(C)=O)cc1", "T"),
    ("CN/C(=N/CCSCc1nc[nH]c1C)NC#N", "F"),
    ("CNC(=C[N+](=O)[O-])NCCSCc1ccc(CN(C)C)o1", "T"),
]
